system: ACHN renal; test: NCI-60 one-dose screen, 48 h (100 = growth as untreated, 0 = no growth, -100 = all killed); details: 10 µM unless noted
About 83,000 compounds went through this panel and 20% of them were active in at least one assay; those are over-represented in the sample as a whole. Calls of active or inactive are those of the source. The calls were made as follows: active = growth percent below 10; inactive = the rest.
Catalogue of growth readings, one per entry.

Worked set:
COc1ccc2c(c1)O/C(=C\c1cccc(OCC(=O)Nc3nc(C)c(C)s3)c1)C2=O
98.7% (inactive)
Cn1cc(-c2csc(-c3cccc(F)c3)n2)c2cccnc21
-31.8% [100 µM] (active)
C=C1C(=O)O[C@H]2[C@H]1CC/C(CNC(=O)/C=C/c1ccc(Cl)cc1Cl)=C\CC[C@@]1(C)O[C@@H]21
-79.9% (active)
CCOC(=O)C/C(C)=N\NC(=O)c1ccncc1
103% (inactive)
O=C(Nc1ccc(Nc2ccncc2)cc1)c1ccc(C(=O)Nc2ccc(Nc3ccncc3)cc2)cc1
97.2% (inactive)
COc1ccccc1NC(=O)N/C(N)=N/c1nc2ccccc2s1
42.2% (inactive)
S=C(Cc1ccc2c(c1)CCCC2)N1CCOCC1
101% (inactive)
COc1cccc(-c2nc3sccn3c2-c2ccnc(NCCNS(=O)(=O)c3cccc(Cl)c3)c2)c1
30.5% (inactive)

Incoming: Request the reported growth associated with Nc1ccc2c(c1)c(N)nn2C(=O)Nc1ccc(Cc2ccccc2)cc1
Outgoing: 48.9% (inactive)

Incoming: Which growth value belongs to Cc1ccc(/C=C/c2c(C(=O)/C=C/c3ccc(C(F)(F)F)cc3)c(C)nc3ccccc23)cc1 ?
Outgoing: -100% (active)

Incoming: Find the recorded growth belonging to O=C(COc1ccc(/C=C2\Oc3ccccc3C2=O)cc1)Nc1nc2ccccc2s1 and report it.
Outgoing: 72.7% (inactive)

Incoming: Record request: growth value, item CC(=O)c1nc(Nc2ccc(C)cc2)sc1C
Outgoing: 102% (inactive)

Incoming: Requested field: growth. Item: NC(N)=NN=C(c1ccccc1)c1ccccc1
Outgoing: 48.1% (inactive)

Incoming: Sample Cn1c(=O)c2c(nc(Cl)n2CCl)n(C)c1=O — what was its growth?
Outgoing: 104% (inactive)

Incoming: Could you tell me which growth is on file for COc1ccc(CN2C(=O)C(Cl)=C(Nc3cccc(C(F)(F)F)c3)C2=O)cc1 ?
Outgoing: 52.5% (inactive)

Incoming: Value lookup for growth; key = CN(C)CC1C(=O)O[C@H]2[C@H]1CC/C(COC(=O)c1cc3ccccc3[nH]1)=C\CC[C@@]1(C)O[C@@H]21 (some centres undefined)
Outgoing: -82.4% (active)

Incoming: May I ask what growth has been recorded for COc1ccc(NC(=O)c2nc(-c3cc(OC)c(OC)c(OC)c3)n(-c3cccc4ccccc34)n2)cc1OC ?
Outgoing: 30.6% (inactive)

* * *

Test system: HOP-92 NSCLC
Assay: NCI-60 one-dose screen, 48 h (100 = growth as untreated, 0 = no growth, -100 = all killed)
Details: 10 µM unless noted
Method: Growth inhibition of the HOP-92 human Non-Small Cell Lung tumor cell line is measured as a screen for anti-cancer activity. Cells are grown in 96 well plates and exposed to the test compound for 48 hours. Compounds are tested at a single concentration, which is 10^-5 M for most compounds. The reported endpoint is percent growth (GI% or GIPRCNT), where numbers from 0 - 100% represent growth inhibition, and numbers from -100% - 0 represent cell death. […]
Compounds without any hit were thinned out: in the full panel of roughly 83,000, 20% have a hit.
Consider the following compounds and their measured growth readings.
The figure you give is taken to be in %; do not add the unit.

Incoming: Which growth is listed for COc1ccc2c(c1)O/C(=C/c1ccc(OCC(=O)c3ccccc3)cc1)C2=O ?
Outgoing: 98.6

Incoming: Returns the measured growth for the input compound. Input: Cc1ccc2[nH]c(=O)c3c(c2c1)OC(N)=C(C#N)C31c2cc(Br)ccc2-c2ccc(Br)cc21
Outgoing: 42.7

Incoming: Look up growth for this compound: COc1ccc(C2c3ccc4ccccc4c3Oc3nc(C)[nH]c(=O)c32)cc1 (stereo not given)
Outgoing: 91

Incoming: Which growth value belongs to CN(C)CC1=NC2SC=C(c3ccccc3)C2C(=O)N1CC#N (stereo not given) ?
Outgoing: -14.6

Incoming: # input compound: O=C(Nc1ccc(Cl)cc1)Nc1ccc(Cl)c(C(F)(F)F)c1 ; wanted: its growth
Outgoing: -14.8

* * *

test system: SNB-75 CNS; assay: NCI-60 one-dose screen, 48 h; details: 10 µM unless noted
The panel holds about 83,000 compounds, 20% with a hit somewhere; the sample as a whole holds those more often. Calls of active or inactive are those of the source. Rule for the calls: active = growth percent below 10; inactive = the rest.
Your response should consist of one outcome taken from true for active, false for inactive

Past entries and their recorded results:
Cc1cc(NCc2cc(Nc3ccnc4cc(Cl)ccc34)ccc2F)nc(N2CCN(C)CC2)n1
true
C(=N\Nc1ncc(-c2cc3cc4c(cc3o2)OCO4)s1)/c1ccco1
false

Incoming: Record lookup: outcome of this test for NC1=NCc2nc3ccccc3c(=O)n2C1 ?
Outgoing: false

Incoming: Test call, this compound: Cc1ccc(Nc2nc(N)nc(CSCC(=O)NN)n2)cc1
Outgoing: false

* * *

test system: SNB-75 CNS; assay: NCI-60 one-dose screen, 48 h; details: 10 µM unless noted
This is part of a sample that, as a whole, favours compounds with a hit. Of some 83,000 tested, about 20% had one in any assay. Calls of active or inactive are those of the source. How the source made its calls: active means growth percent below 10; inactive means the rest.
// one of true (1) = active, false (0) = inactive, no free text

Incoming: Name the outcome recorded for NC(=O)c1ccc[n+]([C@@H]2O[C@H](COP(=O)([O-])OP(=O)(O)OC[C@H]3O[C@@H](n4cnc5c(N)ncnc54)[C@H](O)[C@@H]3O)[C@@H](O)[C@H]2O)c1 in the assay.
Outgoing: false (0)

Incoming: Just curious, what result did CNc1ccc(NC)c2c1C(=O)c1ccccc1C2=O get here?
Outgoing: false (0)

Incoming: Could you please tell me the result logged for COc1cc(/C=N/NC(=O)Cn2c(C(C)C)nc3ccccc32)ccc1O in this assay?
Outgoing: false (0)

Incoming: Could you kindly confirm the outcome this assay logged for O=C1/C(=C2/C=Nc3ccccc32)N(O)c2ccccc21 ?
Outgoing: false (0)

Incoming: Test call, this compound: CCCCn1c(=O)c2c(nc(NCCc3ccc(O)c(O)c3)n2CCC)n(CCCC)c1=O
Outgoing: false (0)

Incoming: State the result this test recorded for CCOc1ccccc1-n1c(CN2CCN(C(=O)COc3ccc(CNCCCCCCN4C5CCCC4CC(OC(=O)Nc4cc(C)ccc4OC)C5)cc3)CC2)nc2ccccc2c1=O (centres undefined) .
Outgoing: true (1)

Incoming: Please let me know the test result on file for CN(C)c1ccc(-c2ccc3[nH]c(=O)nc(-c4ccccc4)c3c2)cn1 .
Outgoing: false (0)

Incoming: // param item: COC(=O)c1c2c(c[n+]([O-])c1C)C(=O)C=CC2=O ; yields the recorded call
Outgoing: false (0)

Incoming: Dear colleague, could you share the recorded outcome for CCN(CC)c1ccc(C(=O)c2ccc(N(CC)CC)cc2)cc1 when you have a moment?
Outgoing: true (1)

* * *

tested on: OVCAR-8 ovarian; test: NCI-60 one-dose screen, 48 h (100 = growth as untreated, 0 = no growth, -100 = all killed); conditions: 10 µM unless noted
The panel holds about 83,000 compounds, 20% with a hit somewhere; the sample as a whole holds those more often.
Label condition not met if growth falls below 50%; label condition met in every other case.

COc1ccc(-c2nc(SC(C)C)nc(NNC(N)=S)c2C#N)cc1
condition met
Cc1cc(O)c(C2=NN(c3ccc(S(N)(=O)=O)cc3)C(c3ccccc3Cl)C2)cc1Cl (stereo not drawn)
condition not met
C=C1C(=O)O[C@H]2[C@H]1CC/C(CNC(=O)/C=C/c1ccc(Cl)cc1Cl)=C\CC[C@@]1(C)O[C@@H]21
condition not met
COc1cccc(-c2nn(-c3ccccc3)cc2-c2ccnc(NCCNC(=O)Nc3ccc(Cl)c(Cl)c3)c2)c1
condition not met
COc1cc2ncn3c(=O)c4c5c(sc4nc3c2cc1OC)CCCC5
condition met
CC(=O)OC1CCC2(C)C(=CC3C4CCC(=O)C4(C)CCC32)C1 (stereo not drawn)
condition met
O=C(O)c1ccc2c(c1Cl)C(=O)c1ccccc1C2=O
condition met
O=C(N/N=C/C=C/c1ccc([N+](=O)[O-])o1)c1cc2ccccc2cc1O
condition not met
O=c1c2c3c(sc2n2c(-c4cn(-c5ccccc5)nc4-c4ccc(Cl)cc4)nnc2n1Cc1ccccc1)CCCC3
condition met
C[C@H]1[C@H]2[C@H]3CC[C@@H]4[C@@]5(C)C/C(=C/c6ccco6)C(=O)C(C)(C)[C@@H]5CC[C@@]4(C)[C@]3(C)CC[C@]23CO[C@]1(C)[C@@H](C(=O)/C=C\c1ccco1)C3
condition met

Incoming: growth >= 50% for COc1ccc(C(=O)/C=C/c2c(C(F)(F)F)nc3sccn23)cc1OC ?
Outgoing: condition not met

Incoming: Evaluate CCn1c(C)nc2cc(C(N)=O)ccc21 : growth at minimum 50%?
Outgoing: condition met

Incoming: Record COc1cccc(-c2nc3sccn3c2-c2ccnc(NCCNS(=O)(=O)c3ccc(C(F)(F)F)cc3)c2)c1 ; criterion: growth no lower than 50%. Met?
Outgoing: condition not met

Incoming: Given the entry CC1(c2ccccc2)NC(=O)N(NC(=O)CSc2nc(-c3cccs3)nc3ccccc23)C1=O (stereo not drawn) , answer whether its growth meets or surpasses 50%.
Outgoing: condition met

Incoming: Threshold query (growth >= 50%) on Cc1ccc(/C=C/c2c(C(=O)/C=C/c3ccc(C(F)(F)F)cc3)c(C)nc3ccccc23)cc1
Outgoing: condition not met

Incoming: Can N#Cc1c(-c2cccc(Cl)c2)cc(-c2cccc(Cl)c2)[nH]c1=O be said to have growth at or above 50%?
Outgoing: condition met

Incoming: Hello, I need to know if COc1ccc(-c2cc(-c3ccc(Nc4nc(Nc5ccc(Cl)cc5)nc(Nc5ccc(Cl)cc5)n4)cc3)nc(N)c2C#N)cc1 has measured growth not below 50%. Thanks!
Outgoing: condition not met

Reference source: PubChem BioAssay (NCI)
